- subject_of_test: T1, human claudin 18 splice variant 2 (CLDN18.2) (human)
- T1 construct: also called claudin 18 isotype 2
- measurement_protocol: flow cytometry, HEK293 cells stably expressing CLDN18.2; APC-conjugated secondary antibody; binding assay 3; normalized to IMAB362
endpoint_label: EC50 normalized [%] (%)
Provide only the numeric value, understood in %.

Consider the reported EC50 normalized [%] for these binders:
mu mAB362 (mouse IgG1) (antibody, V domains shown, also called mu muAB362 (IgG1)) VH: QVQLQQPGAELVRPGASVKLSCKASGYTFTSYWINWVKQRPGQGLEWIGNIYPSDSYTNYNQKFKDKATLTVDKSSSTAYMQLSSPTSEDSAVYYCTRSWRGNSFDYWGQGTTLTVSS VL: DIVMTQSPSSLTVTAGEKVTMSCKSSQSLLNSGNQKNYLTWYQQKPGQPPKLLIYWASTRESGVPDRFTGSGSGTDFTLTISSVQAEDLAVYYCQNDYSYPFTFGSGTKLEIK
343
mu mAB279 (antibody, mouse IgG2a, V domains shown, mouse IgG2a kappa) VH: QVQLQQSGAELARPGASVKLSCKASGYTFTDYYINWVKQRTGQGLEWIGEIYPGSGNTYYNEKFKGKATLTADKSSSTAYMQLSSLTSEDSAVYFCARSYGAFDYWGQGTTLTVSS VL: DIVMTQSQKFMSTSVGDRVSITCKASQNVRTAVAWYQQKPGQSPKALIYLASNRHTGVPDRFTGSGSGTDFTLTISNVQSEDLADYFCLQHWNYPLTFGGGTKLEIK
4
mu mAB62 (antibody, mouse IgG2a, V domains shown, mouse IgG2a kappa) VH: QVQLQQSGAELMKPGASVKISCKATGYTFSSYWIEWVKQRPGHGLEWIGEILPGSGSTNYNEKFKGKATFTADTSSNTAYMQLSSLTSEDSAVYYCARYDYPWFAYWGQGTLVTVSA VL: QIVLTQSPAIMSASPGEKVTITCSASSSVSYMHWFQQKPGTSPKLWIYSTSNLASGVPARFSGSGSGTSYSLTISRMEAEDAATYYCQQRSSYPPTFGGGTKLEIK
4280

Please indicate EC50 normalized [%] recorded for mu mAB294 (antibody, V domains shown, Tied by its number) VH: QIQLVQSGPELKKPGETVKISCKASGYTFTNYGMNWVKQAPGKGLKWMGWINTNTGEPTYAEEFKGRFAFSLETSASTAYLQINNLKNEDTATYFCARLGFGNAMDYWGQGTSVTVSS VL: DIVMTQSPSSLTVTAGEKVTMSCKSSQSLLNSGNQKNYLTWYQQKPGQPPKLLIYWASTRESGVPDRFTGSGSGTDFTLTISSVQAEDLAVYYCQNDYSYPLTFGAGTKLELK
53
